Target: (H^+, K^+)ATPase (Sus scrofa, UniProt P19156)
Construct: ATPase is prepared from the pig gastric mucosa; from tissue; host or cells: pig gastric mucosa
Sequence (P19156 2-1034 limits assumed): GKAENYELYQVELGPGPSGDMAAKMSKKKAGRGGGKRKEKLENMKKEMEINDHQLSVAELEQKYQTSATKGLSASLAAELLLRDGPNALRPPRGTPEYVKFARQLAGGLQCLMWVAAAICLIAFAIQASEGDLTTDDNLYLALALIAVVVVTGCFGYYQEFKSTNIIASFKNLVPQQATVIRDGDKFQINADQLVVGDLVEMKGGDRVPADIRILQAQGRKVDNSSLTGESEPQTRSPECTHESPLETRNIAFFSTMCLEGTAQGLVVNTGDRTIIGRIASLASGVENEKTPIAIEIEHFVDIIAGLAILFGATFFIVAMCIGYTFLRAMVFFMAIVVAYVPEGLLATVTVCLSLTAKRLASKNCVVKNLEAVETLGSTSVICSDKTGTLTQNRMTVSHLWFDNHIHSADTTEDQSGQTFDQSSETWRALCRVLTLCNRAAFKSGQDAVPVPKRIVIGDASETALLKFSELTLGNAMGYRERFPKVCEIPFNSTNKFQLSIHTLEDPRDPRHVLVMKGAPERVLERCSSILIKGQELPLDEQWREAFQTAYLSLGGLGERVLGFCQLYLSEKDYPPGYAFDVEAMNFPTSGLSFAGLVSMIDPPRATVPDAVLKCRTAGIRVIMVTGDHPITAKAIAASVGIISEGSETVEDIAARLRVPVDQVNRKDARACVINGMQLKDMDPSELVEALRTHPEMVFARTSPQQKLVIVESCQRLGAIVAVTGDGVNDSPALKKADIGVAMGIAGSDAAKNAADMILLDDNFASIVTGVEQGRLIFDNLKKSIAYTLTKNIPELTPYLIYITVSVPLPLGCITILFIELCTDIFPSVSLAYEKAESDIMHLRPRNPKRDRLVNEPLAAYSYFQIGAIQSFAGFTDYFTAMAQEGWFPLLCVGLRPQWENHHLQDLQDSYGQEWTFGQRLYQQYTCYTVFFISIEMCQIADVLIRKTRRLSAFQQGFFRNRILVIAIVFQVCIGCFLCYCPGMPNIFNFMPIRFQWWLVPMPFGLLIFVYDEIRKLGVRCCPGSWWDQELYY
Sequence (P18434 whole entry partner): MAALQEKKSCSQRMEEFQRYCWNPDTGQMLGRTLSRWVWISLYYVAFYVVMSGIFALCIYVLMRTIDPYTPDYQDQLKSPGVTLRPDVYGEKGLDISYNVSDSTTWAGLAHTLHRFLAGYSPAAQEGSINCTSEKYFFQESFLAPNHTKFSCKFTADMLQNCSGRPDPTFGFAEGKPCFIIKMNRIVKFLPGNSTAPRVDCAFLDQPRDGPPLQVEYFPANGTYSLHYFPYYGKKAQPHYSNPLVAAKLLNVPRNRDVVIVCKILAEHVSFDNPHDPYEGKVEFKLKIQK
Assay: Inhibition of (H^+, K^+)ATPase activities
Format: biochemical
Details: pig gastric mucosa ATPase; pH 7.4; 2 mM MgCl2; 10 mM KCl; 37° C; read-out: (H^+,K^+)ATPase IC50 (Concentration of 50% inhibition)
pIC50: −log10 of the molar value.
Classification field: enter yes (1) for pIC50 values not below 5, no (0) for values below it.

Take a look at these entries with their results.
[[record]]
structure_smiles_string = "CC#CCSc1c2ccccn2c2nc3c(n12)CCCCC3"
label = "no (0)"

[[record]]
structure_smiles_string = "CCC(=O)Sc1c(C)nc2nc3cccccc3n12"
label = "no (0)"

[[record]]
structure_smiles_string = "CCC(=O)Sc1c(-c2ccccc2)nc2n(C)c3ccccc3n12"
label = "no (0)"

[[record]]
structure_smiles_string = "COCC(=O)Sc1c(C)nc2nc3cccccc3n12"
label = "yes (1)"

[[record]]
structure_smiles_string = "Cn1ccn2c(SC(=O)COc3ccccc3)c(-c3ccccc3)nc12"
label = "no (0)"

[[record]]
structure_smiles_string = "Cc1nc2nc3cccccc3n2c1SC(=O)C(C)C"
label = "yes (1)"

[[record]]
structure_smiles_string = "CCC(=O)Sc1c2ccccn2c2nc3c(n12)CCCCC3"
label = "no (0)"

[[record]]
structure_smiles_string = "C/C=C/C(=O)Sc1c(C)nc2nc3cccccc3n12"
label = "no (0)"

[[record]]
structure_smiles_string = "CC(=O)Sc1c(-c2ccccc2)nc2nc3cccccc3n12"
label = "yes (1)"

[[record]]
structure_smiles_string = "C#CCSc1c2ccccn2c2nc3c(n12)CCCCC3"
label = "yes (1)"


From here, focus on the item given below.
Test whether the molecule `CC(=O)Sc1c(-c2ccc(Cl)cc2)nc2nc3cccccc3n12` records pIC50 of 5 or higher.
yes (1)

====

Item-by-item account of IC50
Molecular target: (H^+, K^+)ATPase (Sus scrofa)
Construct: ATPase is prepared from the pig gastric mucosa; from tissue; host or cells: pig gastric mucosa
Assay: Inhibition of (H^+, K^+)ATPase activities
Format: biochemical
Conditions: pig gastric mucosa ATPase; pH 7.4; 2 mM MgCl2; 10 mM KCl; 37° C; read-out: (H^+,K^+)ATPase IC50 (Concentration of 50% inhibition)

These solved cases illustrate the format of a correct answer.
[[record]]
structure_smiles_string = "O=C(Sc1c(-c2ccccc2)nc2nc3cccccc3n12)c1ccccn1"
target_entity = "(H^+, K^+)ATPase (Sus scrofa)"
observed_value = "2720 nM"

[[record]]
structure_smiles_string = "C=CC(=O)Sc1c(-c2ccccc2)nc2nc3cccccc3n12"
target_entity = "(H^+, K^+)ATPase (Sus scrofa)"
observed_value = "2200 nM"

[[record]]
structure_smiles_string = "c1ccn2c(c1)c(SCCN1CCCCC1)n1c3c(nc12)CCCCC3"
target_entity = "(H^+, K^+)ATPase (Sus scrofa)"
observed_value = "91300 nM"

[[record]]
structure_smiles_string = "COCCC(=O)Sc1c(C)nc2nc3cccccc3n12"
target_entity = "(H^+, K^+)ATPase (Sus scrofa)"
observed_value = "55100 nM"


# IC50 (compound: `COCC(=O)Sc1c(-c2ccccc2)nc2nc3cccccc3n12` ) is 2230 nM

====

Target: (H^+, K^+)ATPase (Sus scrofa)
Construct: ATPase is prepared from the pig gastric mucosa
Assay: Inhibition of (H^+, K^+)ATPase activities
Conditions: pig gastric mucosa ATPase; pH 7.4; 2 mM MgCl2; 10 mM KCl; 37° C; read-out: (H^+,K^+)ATPase IC50 (Concentration of 50% inhibition)
QUANTITY KIND: pIC50
To interpret pIC50, take it as minus log10 of a concentration measured in moles per litre.

Use the examples below as a reference point.
[[record]]
structure_smiles_string = "C/C=C/C(=O)Sc1c(-c2ccccc2)nc2nc3cccccc3n12"
quantity_kind = "pIC50"
observed_value = 4.88

[[record]]
structure_smiles_string = "CCC(=O)Sc1c(-c2ccccc2)nc2nc3cccccc3n12"
quantity_kind = "pIC50"
observed_value = 4.98

[[record]]
structure_smiles_string = "COCCC(=O)Sc1c(-c2ccccc2)nc2nc3cccccc3n12"
quantity_kind = "pIC50"
observed_value = 5.06

[[record]]
structure_smiles_string = "C=CCSc1c2ccccn2c2nc3c(n12)CCCCC3"
quantity_kind = "pIC50"
observed_value = 4.78

[[record]]
structure_smiles_string = "CCCCC(=O)Sc1c(-c2ccccc2)nc2nc3ccc(C(C)C)ccc3n12"
quantity_kind = "pIC50"
observed_value = 5.71


The record that follows has no pIC50 shown yet.
pIC50 in this record for `CC(=O)Sc1c(-c2ccc(F)cc2)nc2nc3cccccc3n12` : 5.85
